- System: E. coli
- Assay overview: microbe, parasite or virus in culture
- Condition info: Escherichia coli, read-out: MICC (MIC of the test compound alone)
Parameter MIC: see the listing below.
Report as a plain number; the unit µg/mL is understood.

CCn1cc(C(=O)O)c(=O)c2cc(F)c(N3CCN(CNc4ccc([N+](=O)[O-])cc4)CC3)cc21 | 0.125

What MIC value was documented for this molecule, C/C(=C\C(=O)OCCCCCCCCC(=O)O)C[C@@H]1OC[C@H](C[C@@H]2O[C@H]2[C@@H](C)[C@H](C)O)[C@@H](O)[C@H]1O ?
64

What about CCn1cc(C(=O)O)c(=O)c2cc(F)c(N3CCN(C(=O)CN4CCCCC4)CC3)cc21 ?
16

What about CCn1cc(C(=O)O)c(=O)c2cc(F)c(N3CCNCC3)cc21 [Nor, norfloxacin, reference compound] ?
0.125

What about CCn1cc(C(=O)O)c(=O)c2cc(F)c(N3CCN(C(=O)CN4CCOCC4)CC3)cc21 ?
32

What about CC(C)(N)[C@H](NC(=O)c1ccc(C#CC#C[C@@H]2C[C@H]2CO)cc1)C(=O)NO [ACHN-975, reference compound] ?
0.5

* * *

- System: M. tuberculosis (MC26020)
- Assay overview: microbe, parasite or virus in culture
- Type: cell-based, Mycobacterium tuberculosis
Recorded metric: MIC M. tuberculosis (MC26020) (µM)
Report as a plain number; the unit µM is understood.

Past entries and their recorded results:
CCn1cc(C(=O)O)c(=O)c2cc(F)c(N3CCN(CN4C(=O)C(=O)c5cc(F)ccc54)CC3)cc21 [20a] | 64.45
CCn1cc(C(=O)O)c(=O)c2cc(F)c(N3CCN(C(=O)CNNC(=O)c4ccncc4)CC3)cc21 [compound 16] | 1

What MIC M. tuberculosis (MC26020) value was documented for this compound, CCn1cc(C(=O)O)c(=O)c2cc(F)c(N3CCN(CN4C(=O)C(=O)c5cc(C)ccc54)CC3)cc21 [20b] ?
129.94
